Assay: Pharmacokinetic properties in Sprague-Dawley rats after IV and PO administration
Format: in vivo
Conditions: male, plasma, 5 mg/kg, rat, PO (5 mpk)
// reported bioavailability for each item listed
Experimental endpoint: bioavailability (%)

compound="CC(C)Oc1c(C(C)c2nc(Cl)c3c(N)nccn23)cc(Cl)c(F)c1C1CNC(=O)C1 (single isomer, unassigned) [Compound 48B]" unit_of_measure=% numeric_result=47
compound="CC(C)Oc1c([C@H](C)c2nc(Cl)c3c(N)nccn23)cc(Cl)c(F)c1-c1ccc(C(=O)N(C)C)nc1 [Compound 16A]" unit_of_measure=% numeric_result=41.1
compound="CC(C)Oc1c([C@H](C)c2nc(Cl)c3c(N)nccn23)cc(Cl)c(F)c1-c1ccc(C(F)(F)F)nc1 [Compound 40A]" unit_of_measure=% numeric_result=51

====

Experiment: Pharmacokinetic properties in Sprague-Dawley rats after IV and PO administration
Assay type: in vivo
Settings: male, plasma, 1 mg/kg, rat, IV (1 mpk)
Experimental endpoint: clearance (mL/min/kg)

molecule="CC(C)Oc1c([C@H](C)c2nc(Cl)c3c(N)nccn23)cc(Cl)c(F)c1-c1ccc(C(F)(F)F)nc1 [Compound 40A]" experimental_endpoint=clearance unit_of_measure=mL/min/kg numeric_result=22.2
molecule="CC(C)Oc1c(C(C)c2nc(Cl)c3c(N)nccn23)cc(Cl)c(F)c1C1CNC(=O)C1 (single isomer, unassigned) [Compound 48B]" experimental_endpoint=clearance unit_of_measure=mL/min/kg numeric_result=39.2
molecule="CC(C)Oc1c([C@H](C)c2nc(Cl)c3c(N)nccn23)cc(Cl)c(F)c1-c1ccc(C(=O)N(C)C)nc1 [Compound 16A]" experimental_endpoint=clearance unit_of_measure=mL/min/kg numeric_result=16

====

Target: recombinant PI3K (p110α/p85α) (Homo sapiens, UniProt P42336)
Sequence (P42336 whole entry): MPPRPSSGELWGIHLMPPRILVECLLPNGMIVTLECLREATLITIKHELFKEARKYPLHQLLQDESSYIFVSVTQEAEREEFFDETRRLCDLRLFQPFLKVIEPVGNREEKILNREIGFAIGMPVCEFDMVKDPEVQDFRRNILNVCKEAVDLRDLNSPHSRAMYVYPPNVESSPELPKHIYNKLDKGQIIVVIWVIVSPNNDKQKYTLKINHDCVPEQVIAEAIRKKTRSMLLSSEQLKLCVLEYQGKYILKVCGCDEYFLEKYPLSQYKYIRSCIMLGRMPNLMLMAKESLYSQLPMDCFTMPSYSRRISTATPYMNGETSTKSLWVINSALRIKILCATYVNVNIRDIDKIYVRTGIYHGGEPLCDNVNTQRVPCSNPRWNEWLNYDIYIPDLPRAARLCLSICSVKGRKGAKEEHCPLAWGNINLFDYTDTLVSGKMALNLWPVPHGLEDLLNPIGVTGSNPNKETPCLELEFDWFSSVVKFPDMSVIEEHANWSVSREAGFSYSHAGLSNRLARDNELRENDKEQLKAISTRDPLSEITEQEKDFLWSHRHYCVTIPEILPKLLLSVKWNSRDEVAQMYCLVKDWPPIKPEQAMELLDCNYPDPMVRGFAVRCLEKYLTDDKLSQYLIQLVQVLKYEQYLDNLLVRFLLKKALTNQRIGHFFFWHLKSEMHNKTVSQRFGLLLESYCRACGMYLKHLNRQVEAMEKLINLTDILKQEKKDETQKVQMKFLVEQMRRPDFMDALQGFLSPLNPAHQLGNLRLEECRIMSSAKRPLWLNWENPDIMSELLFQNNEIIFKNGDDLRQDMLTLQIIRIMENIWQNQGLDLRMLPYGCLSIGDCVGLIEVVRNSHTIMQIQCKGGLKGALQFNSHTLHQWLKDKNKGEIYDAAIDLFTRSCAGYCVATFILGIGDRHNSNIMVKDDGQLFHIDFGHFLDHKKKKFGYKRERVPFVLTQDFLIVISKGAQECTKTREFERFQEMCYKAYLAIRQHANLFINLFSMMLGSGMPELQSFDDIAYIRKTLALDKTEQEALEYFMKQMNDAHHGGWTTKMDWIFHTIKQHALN
Sequence (P27986 whole entry partner): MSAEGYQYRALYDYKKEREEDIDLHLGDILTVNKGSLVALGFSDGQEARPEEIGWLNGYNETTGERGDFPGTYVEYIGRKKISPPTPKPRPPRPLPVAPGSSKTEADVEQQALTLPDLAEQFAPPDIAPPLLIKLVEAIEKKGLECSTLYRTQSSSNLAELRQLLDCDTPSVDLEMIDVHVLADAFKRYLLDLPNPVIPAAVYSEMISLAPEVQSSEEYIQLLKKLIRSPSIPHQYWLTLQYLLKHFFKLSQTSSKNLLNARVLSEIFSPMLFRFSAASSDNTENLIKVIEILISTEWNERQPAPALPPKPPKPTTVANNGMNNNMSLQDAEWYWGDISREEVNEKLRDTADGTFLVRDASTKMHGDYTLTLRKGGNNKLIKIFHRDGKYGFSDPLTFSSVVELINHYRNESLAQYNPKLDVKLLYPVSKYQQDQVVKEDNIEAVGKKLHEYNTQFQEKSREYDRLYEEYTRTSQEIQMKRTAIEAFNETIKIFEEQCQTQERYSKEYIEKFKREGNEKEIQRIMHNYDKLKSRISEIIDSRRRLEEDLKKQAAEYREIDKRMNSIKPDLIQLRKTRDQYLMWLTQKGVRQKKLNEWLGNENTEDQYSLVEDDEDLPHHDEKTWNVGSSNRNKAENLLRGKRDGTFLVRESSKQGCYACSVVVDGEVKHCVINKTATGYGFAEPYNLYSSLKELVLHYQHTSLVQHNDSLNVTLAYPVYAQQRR
Assay: PI3Kα ADP-Glo kinase assay
Assay type: biochemical
Conditions: read-out: PI3Kα Enzyme activity IC50
Experimental endpoint: log10 IC50 (log10 of the value in µM)

compound="CCOc1c([C@H](C)c2nc(Cl)c3c(N)nccn23)cc(Cl)c(C)c1-c1ccc(C(=O)N(C)C)nc1 [Compound 11]" numeric_result=-0.27
compound="CCOc1c(C(C)c2nc(Br)c3c(N)nccn23)cc(Cl)c(C)c1-c1ccc(C)nc1 (stereo not shown) [Compound 7]" numeric_result=-0.38
compound="Cc1nc(C(C)c2cc(Cl)c(F)c(-c3ccc(C#N)nc3)c2OC(C)C)n2ccnc(N)c12 (single isomer, unassigned) [Compound 59A]" numeric_result=0.80
compound="CCOc1c(C(C)c2nc(C)c3c(N)nccn23)cc(Cl)c(C)c1-c1ccc(C(F)(F)F)nc1 (stereo not shown) [Compound 32]" numeric_result=0.87
compound="CCOc1c(C(C)c2nc(Br)c3c(N)nccn23)cc(Cl)c(C)c1-c1ccc(C(F)(F)F)nc1 (stereo not shown) [Compound 24]" numeric_result=0.60
compound="CC(C)Oc1c([C@H](C)c2nc(Cl)c3c(N)nccn23)cc(Cl)c(F)c1-c1ccc(C(=O)O)nc1 [Compound 18A]" numeric_result=0.66

====

Target: recombinant PI3K (p110α/p85α) (Homo sapiens, UniProt P42336)
Experiment: PI3Kα ADP-Glo kinase assay
Assay type: biochemical
Conditions: read-out: PI3Kα Enzyme activity IC50
pIC50: −log10 of the molar value.
Experimental endpoint: pIC50

compound="CCOc1c([C@H](C)c2nc(Cl)c3c(N)nccn23)cc(Cl)c(C)c1-c1ccc(Cl)nc1 [Compound 27A]" numeric_result=5.66
compound="CCOc1c([C@H](C)c2nc(Cl)c3c(N)nccn23)cc(Cl)c(F)c1-c1ccc(C(F)(F)F)nc1 [Compound 41A]" numeric_result=5.66
compound="CCOc1c(C(C)c2nc(Cl)c3c(N)nccn23)cc(Cl)c(F)c1-c1ccc(C(=O)N(C)C)nc1 (stereo not shown) [Compound 13]" numeric_result=5.92
compound="CCOc1c(C(C)c2nc(Cl)c3c(N)nccn23)cc(F)c(Cl)c1-c1ccc(C(F)(F)F)nc1 (stereo not shown) [Compound 33]" numeric_result=5.74
compound="CCOc1c([C@H](C)c2nc(Cl)c3c(N)nccn23)cc(Cl)c(C)c1-c1ccc(C)nc1 [Compound 8A]" numeric_result=5.89
compound="COc1c(C(C)c2nc(Br)c3c(N)nccn23)cc(Cl)c(C)c1-c1c(C)noc1C (stereo not shown) [Compound 21]" numeric_result=5.70
compound="Cc1nc([C@@H](C)c2cc(Cl)c(F)c(-c3ccc(C(=O)N4CCC(F)(F)CC4)nc3)c2OC(C)C)n2ccnc(N)c12 [Compound 71]" numeric_result=5.33
